Test method notes: Pharmacokinetic study after a single oral administration to mice
Type: in vivo
Experimental context: female Balb/c mice, single oral 100 mg/kg; concentration at last sampling time point; 100 mg/kg
Parameter clast: see the listing below.

{"columns": ["Compound", "clast, ng/mL"],
 "data": [
  ["CCCCCCCCCCCCCCCCN(C)CC(O)CS(=O)(=O)O (centres unmarked) [2338-CF/30]", 1.8],
  ["CCCCCCCCCCCCCCCCN(C)CC(O)CS(=O)(=O)O (centres unmarked) [TN-0382.11]", 3.4],
  ["CCCCCCCCCCCCCCCCN(C)CC(O)CS(=O)(=O)O (centres unmarked) [KP-0722.11]", 3.8],
  ["CCCCCCCCCCCCCCCCN(C)CC(O)CS(=O)(=O)O (centres unmarked) [2208-CF/1]", 1.1],
  ["CCCCCCCCCCCCCCCCN(C)CC(O)CS(=O)(=O)O (centres unmarked) [KP-0726.11]", 1.2]
]}

====

Test method notes: Pharmacokinetic study after a single oral administration to mice
Type: in vivo
Experimental context: female Balb/c mice, single oral 100 mg/kg; 100 mg/kg
Value kind: MRT (h)

{"columns": ["Compound", "Numeric result"],
 "data": [
  ["CCCCCCCCCCCCCCCCN(C)CC(O)CS(=O)(=O)O (stereo not shown) [TN-0382.11]", 5.9],
  ["CCCCCCCCCCCCCCCCN(C)CC(O)CS(=O)(=O)O (stereo not shown) [KP-0722.11]", 4.8],
  ["CCCCCCCCCCCCCCCCN(C)CC(O)CS(=O)(=O)O (stereo not shown) [KP-0726.11]", 5.5],
  ["CCCCCCCCCCCCCCCCN(C)CC(O)CS(=O)(=O)O (stereo not shown) [2208-CF/1]", 5.0]
]}

====

Tested on: RBL-2H3 cells
Test method notes: Maximum tolerated concentration (cytotoxicity by lactate dehydrogenase release)
Format: cell-based, Rat
Experimental context: ratio between MTC and IC50
Parameter SI (safety index): see the listing below.

{"columns": ["Compound", "Measured on", "SI (safety index)"],
 "data": [
  ["CCCCCCCCCCCCN(C)CC(O)CS(=O)(=O)O (stereo not drawn)", "RBL-2H3 cells", 48.8],
  ["CCCCCCCCCCCCCC[N+](C)(C)CC(CS(=O)(=O)[O-])OC(C)=O (stereo not drawn)", "RBL-2H3 cells", 25.6],
  ["CCCCCCCCCCCCCCCCOP(=O)([O-])OCC[N+](C)(C)C [Miltefosine, reference compound]", "RBL-2H3 cells", 6.0],
  ["CCCCCCCCCCCCCC[N+](C)(C)CC(CS(=O)(=O)[O-])OC (stereo not drawn)", "RBL-2H3 cells", 22.7],
  ["CCCCCCCCCCCCCCCCN(C)CC(O)CS(=O)(=O)O (stereo not drawn)", "RBL-2H3 cells", 10.9],
  ["CCCCCCCCCCCCCCN(C)CC(O)CS(=O)(=O)O (stereo not drawn)", "RBL-2H3 cells", 19.6]
]}

====

Test method notes: Pharmacokinetic study after a single oral administration to mice
Assay type: in vivo
Experimental context: female Balb/c mice, single oral 100 mg/kg in 0.5% methylcellulose; plasma; 100 mg/kg
Parameter tmax: see the listing below.
Value kind: tmax (h)

{"columns": ["Compound", "Numeric result"],
 "data": [
  ["CCCCCCCCCCCCCCCCN(C)CC(O)CS(=O)(=O)O (centres unmarked) [2338-CF/30]", 1.0],
  ["CCCCCCCCCCCCCCCCN(C)CC(O)CS(=O)(=O)O (centres unmarked) [KP-0722.11]", 2.0],
  ["CCCCCCCCCCCCCCCCN(C)CC(O)CS(=O)(=O)O (centres unmarked) [KP-0726.11]", 1.0],
  ["CCCCCCCCCCCCCCCCN(C)CC(O)CS(=O)(=O)O (centres unmarked) [TN-0382.11]", 1.0],
  ["CCCCCCCCCCCCCCCCN(C)CC(O)CS(=O)(=O)O (centres unmarked) [2208-CF/1]", 1.0]
]}
